Assay: qHTS assay to identify small molecule agonists of the retinoic acid receptor (RAR) signaling pathway (AID 1159553)
Details: C3RL4 RARE luciferase reporter, agonist, 6 h; series mostly up to 73.3 µM
Records with an inconclusive call do not appear. Activity calls are given as the source filed them. Calls come from the whole dose curve; as a rule, active = well fitted activation curve with a large enough effect in the repeat runs; inconclusive = weak or mixed curves, or effect the other way; inactive = no such curve, though single readings can be large or run the other way.
Outcome codes: 1.0 (active), 0.0 (inactive)

>  <COMPOUND>
CCCOC(=O)c1ccc(N)cc1

>  <LABEL>
1.0

$$$$
>  <COMPOUND>
CC1=C(/C=C/C(C)=C\C=C\C(C)=C\C(=O)O)C(C)(C)CCC1

>  <LABEL>
1.0

$$$$
>  <COMPOUND>
COC(=O)[C@@H]1CC2=CC(=O)CC[C@]2(C)[C@@]23O[C@@H]2C[C@@]2(C)[C@@H](CC[C@@]24CCC(=O)O4)[C@H]13

>  <LABEL>
0.0

$$$$
>  <COMPOUND>
CCCCOC(=O)CCS

>  <LABEL>
0.0

$$$$
>  <COMPOUND>
C[C@@H]1C[C@H]2[C@@H]3CCC4=CC(=O)C=C[C@]4(C)[C@@]3(F)[C@@H](O)C[C@]2(C)[C@H]1C(=O)CO

>  <LABEL>
0.0

$$$$
>  <COMPOUND>
O=C(O)c1ccc(CO)o1

>  <LABEL>
0.0

$$$$
>  <COMPOUND>
CCOC(=O)c1ccccc1OC

>  <LABEL>
0.0

$$$$
>  <COMPOUND>
Nc1ccc(S(=O)(=O)O)cc1

>  <LABEL>
0.0

$$$$
>  <COMPOUND>
C=CC(=C)CCCC(C)(C)OC(C)=O

>  <LABEL>
0.0

$$$$
>  <COMPOUND>
CCOC(=N)CC(=O)OCC

>  <LABEL>
0.0

$$$$
>  <COMPOUND>
CC(C)CCCCCCOC(=O)CCCCC(=O)OCCCCCCC(C)C

>  <LABEL>
0.0

$$$$
>  <COMPOUND>
COc1cc2c(N3CCN(C(=O)Nc4ccc(OC(C)C)cc4)CC3)ncnc2cc1OCCCN1CCCCC1

>  <LABEL>
0.0

$$$$
>  <COMPOUND>
O=C(CCCCCCCCC#CI)Oc1ccccc1

>  <LABEL>
0.0

$$$$
>  <COMPOUND>
Brc1cc(-c2ccc(Br)c(Br)c2Br)cc(Br)c1Br

>  <LABEL>
0.0

$$$$
>  <COMPOUND>
CC#N

>  <LABEL>
0.0

$$$$
>  <COMPOUND>
O=C(O)C(Cc1cc(I)c(O)c(I)c1)c1ccccc1 (configuration not stated)

>  <LABEL>
0.0

$$$$
>  <COMPOUND>
CC(=O)OCC(=O)[C@H]1CC[C@H]2[C@@H]3CCC4=CC(=O)CC[C@]4(C)[C@H]3CC[C@]12C

>  <LABEL>
0.0

$$$$
>  <COMPOUND>
C[Si]1(C)O[Si](C)(C)O[Si](C)(C)O1

>  <LABEL>
0.0

$$$$
>  <COMPOUND>
CC1=CC(=O)CC(C)(C)C1(O)/C=C/C(C)=C\C(=O)O (configuration not stated)

>  <LABEL>
0.0

$$$$
>  <COMPOUND>
COC(=O)Nc1nc2ccc(C(=O)c3cccs3)cc2[nH]1

>  <LABEL>
0.0

$$$$
>  <COMPOUND>
COCc1c(C(C)C)nc(C(C)C)c(/C=C/[C@@H](O)C[C@@H](O)CC(=O)O)c1-c1ccc(F)cc1

>  <LABEL>
0.0

$$$$
>  <COMPOUND>
Cc1cnc(C)c(C)n1

>  <LABEL>
0.0

$$$$
>  <COMPOUND>
COCC(O)CO (configuration not stated)

>  <LABEL>
0.0

$$$$
>  <COMPOUND>
CC(C)CCCC(=O)O

>  <LABEL>
0.0

$$$$
>  <COMPOUND>
CC(C)(C)C(=O)O

>  <LABEL>
0.0

$$$$
>  <COMPOUND>
CC(C)CCCCCOC(=O)CCCCC(=O)OCCCCCC(C)C

>  <LABEL>
0.0

$$$$
>  <COMPOUND>
NC(=O)N(O)[C@@H]1C=C[C@H](Oc2cccc(Oc3ccc(F)cc3)c2)C1

>  <LABEL>
1.0

$$$$
